// provenance: patent US4327097A

compounds and their reported MIC Escherichia coli GN 3452
- Tested on: Escherichia coli
- method-summary: MIC against clinical isolates
- Format: cell-based
- condition: Table 5-2, clinical isolate; unit assumed
measured-property: MIC Escherichia coli GN 3452 (µg/mL)

>>> result_value("CCN1CCN(C(=O)N[C@@H](C(=O)N[C@@H]2C(=O)N3[C@@H]2SC(C)(C)[C@@H]3C(=O)O)c2ccccc2)C(=O)C1=O")
3.13
>>> result_value("CC1(C)S[C@@H]2[C@H](NC(=O)C(C(=O)O)c3ccccc3)C(=O)N2[C@H]1C(=O)O (stereo partly shown) [Sodium Carbenicillin, reference compound]")
12.5
>>> result_value("CC(C)N1CCN(C(=O)NC(C(=O)NC2C(=O)N3C2SC(C)(C)C3C(=O)O)c2ccccc2)C(=O)C1=O (single isomer, unassigned)")
1.57
>>> result_value("CC(=O)N1CCN(C(=O)N[C@@H](C(=O)N[C@@H]2C(=O)N3[C@@H]2SC(C)(C)[C@@H]3C(=O)O)c2ccccc2)C(=O)C1")
12.5
>>> result_value("CCCCN1CCN(C(=O)N[C@@H](C(=O)N[C@@H]2C(=O)N3[C@@H]2SC(C)(C)[C@@H]3C(=O)O)c2ccccc2)C(=O)C1")
6.25
>>> result_value("CCCCCN1CCN(C(=O)NC(C(=O)NC2C(=O)N3C2SC(C)(C)C3C(=O)O)c2ccccc2)C(=O)C1=O (single isomer, unassigned)")
1.57
>>> result_value("CN1CCN(C(=O)NC(C(=O)NC2C(=O)N3C2SC(C)(C)C3C(=O)O)c2ccccc2)C(=O)C1=O (single isomer, unassigned)")
12.5
>>> result_value("CCCN1CCN(C(=O)NC(C(=O)NC2C(=O)N3C2SC(C)(C)C3C(=O)O)c2ccccc2)C(=O)C1=O (single isomer, unassigned)")
3.13
>>> result_value("CCCCCCCCN1CCN(C(=O)N[C@@H](C(=O)N[C@@H]2C(=O)N3[C@@H]2SC(C)(C)[C@@H]3C(=O)O)c2ccccc2)C(=O)C1")
1.57
>>> result_value("CCCCCCN1CCN(C(=O)N[C@@H](C(=O)N[C@@H]2C(=O)N3[C@@H]2SC(C)(C)[C@@H]3C(=O)O)c2ccccc2)C(=O)C1")
3.13

----------
- System: Escherichia coli NIHJ
- method-summary: MIC, plate method, standard strains
- Assay type: cell-based
- condition: Table 4, standard strain; unit assumed
# MIC Escherichia coli NIHJ per entry
measured-property: MIC Escherichia coli NIHJ

>>> result_value("CCCCN1CCN(C(=O)NC(C(=O)NC2C(=O)N3C(C(=O)O)=C(CSc4nnnn4C)CSC23)c2ccccc2)C(=O)C1=O (single isomer, unassigned)")
"< 0.1 µg/mL"
>>> result_value("CCN1CCN(C(=O)NC(C(=O)NC2C(=O)N3C(C(=O)O)=C(CSc4nncs4)CSC23)c2ccc(O)cc2)C(=O)C1=O (single isomer, unassigned)")
"< 0.1 µg/mL"
>>> result_value("CCN1CCN(C(=O)NC(C(=O)NC2C(=O)N3C(C(=O)O)=C(CSc4nnnn4CC)CSC23)c2ccc(O)cc2)C(=O)C1=O (single isomer, unassigned)")
"< 0.1 µg/mL"
>>> result_value("O=C(Cc1cccs1)N[C@@H]1C(=O)N2C(C(=O)[O-])=C(C[n+]3ccccc3)CS[C@H]12 [drawing 250, reference compound]")
"> 3.13 µg/mL"
